Tested on: Escherichia coli TOP10
Experiment description: shrunken log2 fold change of peptide-encoding DNA abundance (4.5 h post-induction vs induction); higher = less antimicrobial activity (less host growth inhibition)
Run parameters: time post-induction: 4.5 h; library: site-saturation at positions 5, 18, 19, 20
Can you tell me shrunken log2 fold change for the items I'm about to list?
Numbers only.

Some sequences with recorded shrunken log2 fold change:
[[record]]
residue_sequence = "RRIRMRPPRLPRPRPRPYYQPRP"
target_of_assay = "Escherichia coli TOP10"
value_measured = -0.856

[[record]]
residue_sequence = "RRIRQRPPRLPRPRPRPVDVPRP"
target_of_assay = "Escherichia coli TOP10"
value_measured = -0.208

[[record]]
residue_sequence = "RRIRWRPPRLPRPRPRPIIIPRP"
target_of_assay = "Escherichia coli TOP10"
value_measured = 0.117


Would you mind giving shrunken log2 fold change for every sequence in the list below?
1. RRIRWRPPRLPRPRPRPTCPPRP
2. RRIRHRPPRLPRPRPRPAMDPRP

1. 0.187
2. -0.221

* * *

Test system: Escherichia coli TOP10
Experiment description: shrunken log2 fold change of peptide-encoding DNA abundance (4.5 h post-induction vs induction); higher = less antimicrobial activity (less host growth inhibition)
Run parameters: time post-induction: 4.5 h; library: site-saturation at positions 5, 18, 19, 20
The label depends only on shrunken log2 fold change: True if it is at least 0.1, False if it is smaller.

Would you please look over these solved cases?
[[record]]
residue_sequence = "RRIRWRPPRLPRPRPRPDCSPRP"
label_value = "True"

[[record]]
residue_sequence = "RRIRRRPPRLPRPRPRPYCSPRP"
label_value = "False"

[[record]]
residue_sequence = "RRIRKRPPRLPRPRPRPHMGPRP"
label_value = "False"

[[record]]
residue_sequence = "RRIRMRPPRLPRPRPRPAIWPRP"
label_value = "True"


Please turn your attention to the following entry.
Record RRIRQRPPRLPRPRPRPFHPPRP ; criterion: shrunken log2 fold change no lower than 0.1. Met? False

* * *

Test system: Escherichia coli TOP10
Experiment description: shrunken log2 fold change of peptide-encoding DNA abundance (4.5 h post-induction vs induction); higher = less antimicrobial activity (less host growth inhibition)
Run parameters: time post-induction: 4.5 h; library: site-saturation at positions 5, 18, 19, 20
The label depends only on shrunken log2 fold change: criterion met if it is at least -0.005, criterion not met if it is smaller.

Would you please look over these solved cases?
[[record]]
residue_sequence = "RRIRQRPPRLPRPRPRPRANPRP"
target_of_assay = "Escherichia coli TOP10"
label_value = "criterion met"

[[record]]
residue_sequence = "RRIRTRPPRLPRPRPRPYAYPRP"
target_of_assay = "Escherichia coli TOP10"
label_value = "criterion not met"

[[record]]
residue_sequence = "RRIRERPPRLPRPRPRPPHDPRP"
target_of_assay = "Escherichia coli TOP10"
label_value = "criterion met"

[[record]]
residue_sequence = "RRIRWRPPRLPRPRPRPPCVPRP"
target_of_assay = "Escherichia coli TOP10"
label_value = "criterion met"

[[record]]
residue_sequence = "RRIRQRPPRLPRPRPRPEGNPRP"
target_of_assay = "Escherichia coli TOP10"
label_value = "criterion not met"

[[record]]
residue_sequence = "RRIRNRPPRLPRPRPRPACDPRP"
target_of_assay = "Escherichia coli TOP10"
label_value = "criterion met"

[[record]]
residue_sequence = "RRIRGRPPRLPRPRPRPLQYPRP"
target_of_assay = "Escherichia coli TOP10"
label_value = "criterion not met"

[[record]]
residue_sequence = "RRIRQRPPRLPRPRPRPYIAPRP"
target_of_assay = "Escherichia coli TOP10"
label_value = "criterion met"

[[record]]
residue_sequence = "RRIRMRPPRLPRPRPRPYNEPRP"
target_of_assay = "Escherichia coli TOP10"
label_value = "criterion not met"

[[record]]
residue_sequence = "RRIRWRPPRLPRPRPRPINHPRP"
target_of_assay = "Escherichia coli TOP10"
label_value = "criterion not met"


Please turn your attention to the following entry.
Record RRIRIRPPRLPRPRPRPCTWPRP ; criterion: shrunken log2 fold change no lower than -0.005. Met? criterion not met

* * *

Can you tell me shrunken log2 fold change for the items I'm about to list?
System: Escherichia coli TOP10
Experiment description: shrunken log2 fold change of peptide-encoding DNA abundance (4.5 h post-induction vs induction); higher = less antimicrobial activity (less host growth inhibition)
Run parameters: time post-induction: 4.5 h; library: site-saturation at positions 5, 18, 19, 20
Give bare numbers.

Some sequences with recorded shrunken log2 fold change:
[[record]]
residue_sequence = "RRIRARPPRLPRPRPRPPFFPRP"
target_of_assay = "Escherichia coli TOP10"
value_measured = 0.603

[[record]]
residue_sequence = "RRIRKRPPRLPRPRPRPAHFPRP"
target_of_assay = "Escherichia coli TOP10"
value_measured = 0.232

[[record]]
residue_sequence = "RRIRIRPPRLPRPRPRPNCTPRP"
target_of_assay = "Escherichia coli TOP10"
value_measured = -0.663

[[record]]
residue_sequence = "RRIRRRPPRLPRPRPRPHTHPRP"
target_of_assay = "Escherichia coli TOP10"
value_measured = -0.11

[[record]]
residue_sequence = "RRIRSRPPRLPRPRPRPLTDPRP"
target_of_assay = "Escherichia coli TOP10"
value_measured = -0.162


Would you mind giving shrunken log2 fold change for every sequence in the list below?
1. RRIRPRPPRLPRPRPRPYCPPRP
2. RRIRKRPPRLPRPRPRPRCQPRP
3. RRIRDRPPRLPRPRPRPCGHPRP

1. -0.365
2. 0.099
3. 0.232

* * *

System: Escherichia coli TOP10
Experiment description: shrunken log2 fold change of peptide-encoding DNA abundance (4.5 h post-induction vs induction); higher = less antimicrobial activity (less host growth inhibition)
Run parameters: time post-induction: 4.5 h; library: site-saturation at positions 5, 18, 19, 20
Can you tell me shrunken log2 fold change for the items I'm about to list?
Numbers only.

[[record]]
residue_sequence = "RRIRMRPPRLPRPRPRPRPIPRP"
recorded_metric = "shrunken log2 fold change"
value_measured = 0.754

[[record]]
residue_sequence = "RRIRNRPPRLPRPRPRPTKFPRP"
recorded_metric = "shrunken log2 fold change"
value_measured = -0.607

[[record]]
residue_sequence = "RRIRLRPPRLPRPRPRPTPCPRP"
recorded_metric = "shrunken log2 fold change"
value_measured = 0.152

[[record]]
residue_sequence = "RRIRYRPPRLPRPRPRPWWVPRP"
recorded_metric = "shrunken log2 fold change"
value_measured = -0.0131

[[record]]
residue_sequence = "RRIRKRPPRLPRPRPRPDDFPRP"
recorded_metric = "shrunken log2 fold change"
value_measured = -0.00262

[[record]]
residue_sequence = "RRIRNRPPRLPRPRPRPKSDPRP"
recorded_metric = "shrunken log2 fold change"
value_measured = -0.168

[[record]]
residue_sequence = "RRIRARPPRLPRPRPRPFVFPRP"
recorded_metric = "shrunken log2 fold change"
value_measured = 0.166


Now, please, on to the next sequence.
Could you share what shrunken log2 fold change was measured for RRIRVRPPRLPRPRPRPHFLPRP , tested on Escherichia coli TOP10? 0.187

* * *

Tested on: Escherichia coli TOP10
Experiment description: shrunken log2 fold change of peptide-encoding DNA abundance (4.5 h post-induction vs induction); higher = less antimicrobial activity (less host growth inhibition)
Run parameters: time post-induction: 4.5 h; library: site-saturation at positions 5, 18, 19, 20
Output: class label from shrunken log2 fold change. Mapping: bottom bin: < -0.3; middle bin: ≥ -0.3 and < 0.002; top bin: ≥ 0.002

[[record]]
residue_sequence = "RRIRIRPPRLPRPRPRPVTCPRP"
label_value = "middle bin"


Please turn your attention to the following entry.
Assign a category based on measured shrunken log2 fold change for RRIRWRPPRLPRPRPRPRAQPRP and give only the class name. top bin

* * *

System: Escherichia coli TOP10
Experiment description: shrunken log2 fold change of peptide-encoding DNA abundance (4.5 h post-induction vs induction); higher = less antimicrobial activity (less host growth inhibition)
Run parameters: time post-induction: 4.5 h; library: site-saturation at positions 5, 18, 19, 20
The label depends only on shrunken log2 fold change: criterion met if it is at least 0.1, criterion not met if it is smaller.

Record RRIRYRPPRLPRPRPRPWYGPRP ; criterion: shrunken log2 fold change no lower than 0.1. Met? criterion not met

Record RRIRMRPPRLPRPRPRPIDPPRP ; criterion: shrunken log2 fold change no lower than 0.1. Met? criterion not met

Record RRIRHRPPRLPRPRPRPLLMPRP ; criterion: shrunken log2 fold change no lower than 0.1. Met? criterion not met

* * *

System: Escherichia coli TOP10;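 further: peptides expressed intracellularly from a pBAD plasmid library in pooled LB shake-flask culture, induced with 0.3% L-arabinose, DNA abundance read by NGS, three biological replicates, DESeq2 with apeglm shrinkage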
Experiment description: shrunken log2 fold change of peptide-encoding DNA abundance (4.5 h post-induction vs induction); higher = less antimicrobial activity (less host growth inhibition)
Run parameters: time post-induction: 4.5 h; library: site-saturation at positions 5, 18, 19, 20
Output: class label from shrunken log2 fold change. Mapping: range A: < -0.06; range B: ≥ -0.06 and < 0.04; range C: ≥ 0.04

Assign a category based on measured shrunken log2 fold change for RRIRWRPPRLPRPRPRPVVIPRP and give only the class name. range A

Assign a category based on measured shrunken log2 fold change for RRIRPRPPRLPRPRPRPNCGPRP and give only the class name. range B

Assign a category based on measured shrunken log2 fold change for RRIRERPPRLPRPRPRPTPRPRP and give only the class name. range C

Assign a category based on measured shrunken log2 fold change for RRIRCRPPRLPRPRPRPHMVPRP and give only the class name. range A

Assign a category based on measured shrunken log2 fold change for RRIRSRPPRLPRPRPRPEDKPRP and give only the class name. range B
